Reference for the values: PubChem BioAssay (NCATS)

Tested on: PC15
Assay: qHTS profiling for inhibitors of Plasmodium falciparum proliferation (AID 504749); note: nearly all actives have a fitted effect of over 60% in size
Settings: P. falciparum in erythrocytes, SYBR Green DNA, 72 h; series mostly up to 28.7 µM
Inconclusive results are not listed. Activity calls are given as the source filed them. Calls come from the whole dose curve; as a rule, active = well fitted inhibition curve with a large enough effect; inconclusive = small, poorly fitted or top-dose-only effect; inactive = flat fitted curve, though single readings scatter.
Pick from true (active), false (inactive) when you respond.

Some solved entries appear below for comparison.
CCC1=C[C@@H]2CN(C1)Cc1c([nH]c3ccccc13)[C@@](C(=O)OC)(c1cc3c(cc1OC)N(C)[C@@H]1[C@@](O)(C(=O)OC)[C@H](OC(C)=O)[C@]4(CC)C=CCN5CC[C@]31[C@@H]54)C2 = true
COc1c(N2C[C@@H]3CCCN[C@H]3C2)c(F)cc2c(=O)c(C(=O)O)cn(C3CC3)c12 = false

Per the records of this test, what outcome belongs to CC1(C)O[C@@H]2C[C@@H]3[C@H]4C[C@@H](F)C5=CC(=O)C=C[C@]5(C)[C@@]4(F)[C@@H](O)C[C@]3(C)[C@]2(C(=O)CO)O1 ? false

Short answer needed: outcome of this test for C[C@H]1C[C@@H]2[C@@H]([C@@H](O)C[C@@]3(C)[C@H]2CC[C@]3(O)C(=O)CO)[C@@]2(C)C=CC(=O)C=C12 ? false

Status in this test for Nc1ccc(S(=O)(=O)Nc2ncccn2)cc1 ? false

Just curious, what result did CC[C@H]1CN2CCc3cc(OC)c(OC)cc3[C@H]2C[C@@H]1C[C@@H]1NCCc2cc(OC)c(OC)cc21 get here? true

How did this test come out for CN1c2cc(O)c(N=NC(N)=O)cc2CC1S(=O)(=O)O (stereo not given) ? false

For COc1cc(C(=O)NS(=O)(=O)c2ccccc2C)ccc1Cc1cn(C)c2ccc(NC(=O)OC3CCCC3)cc12 , which call appears in the assay record? false

For COC(=O)C[C@](O)(CCCC(C)(C)O)C(=O)O[C@@H]1C(OC)=C[C@]23CCCN2CCc2cc4c(cc2[C@H]13)OCO4 , what call appears in the results of this test? true

Which outcome did this test record for the compound O=C(O)CO.[NH2-].[NH2-].[Pt+2] ? false
